Values were extracted from patent US20160340286A1.

TEST: cytotoxicity, standardized assay
Type: cell-based
TEST_CONDITIONS: human, HeLa cells
METRIC: CC50 (nM)

* CC(=O)c1ccc2c(c1O)c(O)c1c3c(c(O)cc(C)c32)C(=O)c2c(O)cc(C)cc2-1 | 1690
